Attribution: PubChem BioAssay AID1626

Hi there, I'd appreciate the recorded inhibition for every entry that follows.
- PROTOCOL_TEXT: M. tuberculosis H37Rv growth inhibitors, H37Rv strain (AID 1626);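 also: bacteria incubated seven days before Alamar blue readout; 0% = bacteria only wells and 100% = bacteria with antibiotic wells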
- PARTICULARS: hits give high values, concentration not given here
In all, about 220,000 compounds went through this assay and about 2,000 (0.91%) were called active. Inconclusive results (about 2%) are left out. The list is a sample of the results. Measured potencies and affinities stand elsewhere.
Numbers only, in %.

[[record]]
compound = "COc1ccc(C2C3=C(CCCC3=O)Nc3n[nH]c(C)c32)cc1OC (centres undefined)"
recorded_measurement = -5.11

[[record]]
compound = "N#Cc1ccccc1CSc1nnc(Cc2ccccc2)o1"
recorded_measurement = 0.34


Report inhibition for each item below.
1. Cc1cccn2cc(-c3cccc(NC(=O)c4cccs4)c3)nc12
2. CS(=O)(=O)c1ccc(C(=O)OCC(=O)NC2CCS(=O)(=O)C2)cc1[N+](=O)[O-] (centres undefined)
3. COc1ccc(/C=C/C(=O)c2c(O)ccc3c(C)cc(=O)oc23)cc1
4. O=S(=O)(NCc1ccccc1)c1ccccc1Br
5. COc1ccc(C2CC(=O)C(C=NCCO)=C(O)C2)cc1OC (centres undefined)

Result string:
2.98
2.59
17.2
4.19
-9.01

For each listed entry, give its inhibition.
1. CSc1ccc(/C=C/C(=O)Nc2ccccc2)cc1
2. Cc1[nH][nH]c(=O)c1C(c1ccc(-c2ccc(Cl)c(Cl)c2)o1)c1c(C)[nH][nH]c1=O
3. c1ccc(Cc2nn3c(COc4ccccc4)nnc3s2)cc1
4. Cc1ccc(-c2cn(-c3ccc(OC(F)F)cc3)c3[n+]2CCCCC3)cc1

Result string:
33.9
60.8
8.35
-4.29

Please give inhibition for each item listed below.
1. CCCOc1ccc(N2C(=O)CC(SC(=N)N3N=C(c4ccccc4)CC3c3ccccc3)C2=O)cc1 (centres undefined)
2. COc1ccc(/C(O)=C2/C(=O)C(=O)N(CCN3CCOCC3)C2c2cccnc2)cc1OC (centres undefined)
3. Cc1ccc(/C=N/n2c(C)n[nH]c2=S)o1
4. CCN(CC)C(=O)C1CCCN(Cc2sccc2C)C1 (centres undefined)
5. CCOc1cc(CN2CCN(c3cccc(C(F)(F)F)c3)CC2)ccc1O

Result string:
75.6
-6.27
-0.73
-5.07
-11.9

Report inhibition for every entry below.
1. COc1ccccc1CNC(=O)CN1C(=O)CSc2ccc(S(=O)(=O)N3CCCC3)cc21
2. COc1ccc(S(=O)(=O)NCC2CCCN(C(=O)c3ccco3)C2)cc1 (centres undefined)
3. O=C(CN1C(=O)c2cccc3cccc1c23)Nc1ccc(S(=O)(=O)Nc2nccs2)cc1
4. COc1cc2c(cc1NC(=O)CSc1ccccc1)oc1ccccc12

Result string:
1. -3.73
2. -5.58
3. -0.34
4. 83

---

- PROTOCOL_TEXT: M. tuberculosis H37Rv growth inhibitors, H37Rv strain (AID 1626);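 also: bacteria incubated seven days before Alamar blue readout; 0% = bacteria only wells and 100% = bacteria with antibiotic wells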
- PARTICULARS: hits give high values, concentration not given here
In all, about 220,000 compounds went through this assay and about 2,000 (0.91%) were called active. About 2% were inconclusive and are not listed. A selection follows. Potency and affinity values are given separately.
Please go through the items and note down their inhibition.
Numbers only, in %.

[[record]]
compound = "COC(=O)/C(=C1/Oc2ccc(C)cc2S1)C(F)(F)F"
recorded_measurement = 1.01

[[record]]
compound = "COC(=O)CCC(=O)NC(=S)Nc1cc(Cl)ccc1Cl"
recorded_measurement = -5.76

[[record]]
compound = "COc1cnc(-c2ccccn2)nc1Oc1ccc(Cl)cc1"
recorded_measurement = 71.9

[[record]]
compound = "O=C(NCc1ccccc1)c1ccc(CNc2c(N3CCCC3)c(=O)c2=O)cc1"
recorded_measurement = 3.31

[[record]]
compound = "Cc1cc([N+](=O)[O-])nn1CCCC(=O)Nc1cc(Oc2ccccc2)cc([N+](=O)[O-])c1"
recorded_measurement = 33.1

[[record]]
compound = "Nc1nc(Cl)cc(N2CCC(c3cc(-c4ccc(Cl)cc4Cl)n[nH]3)CC2)n1"
recorded_measurement = 8.57


Would you mind listing inhibition for each of the following compounds?
1. COc1ccc(N=C2NN=C(c3ccc4c(c3)OCCO4)CS2)cc1
2. Nc1cccnc1Oc1ccc(F)cc1F
3. COc1cc(CNCc2ccccc2)cc(Cl)c1OC
4. O=C1OCCC1Sc1nc2ccccc2s1 (centres undefined)
5. CCc1ccc(C2C3=C(CC(C)(C)CC3=O)OC3=C2C(=O)CC(C)(C)C3)cc1
6. O=C(CCCC(=O)OCC(Cl)=C(Cl)Cl)Nc1ccccc1F
7. Cc1cccc(N2CCN(C(=O)c3ccc(CNc4c(N5CCC(C)CC5)c(=O)c4=O)cc3)CC2)c1C

Result string:
1. -3.14
2. -4.1
3. 4.65
4. 6.97
5. -1.37
6. -0.28
7. 73.1

Kindly give each listed record's inhibition.
1. O=C(O)c1ccc(NC2=C(n3nnc4ccccc43)C(=O)c3ccccc3C2=O)cc1
2. CC(C)CNc1cc(N2CCCC2)ccc1[N+](=O)[O-]
3. CCOC(=O)C1CCN(C(=O)COc2ccc(S(=O)(=O)N3CCCC3)cc2C)CC1
4. COc1cnc(-c2ccccn2)nc1Oc1ccccc1Cl
5. Cc1sc2nc(CN3CCOCC3)nc(N3CCOCC3)c2c1C
6. Cc1cccc(OCC2=NS(=O)(=O)c3ccccc3N2)c1

Result string:
[-3.22, 4.85, 8.86, -2.44, -5.18, -21.3]

Batch of 4 compounds: report inhibition for each.
1. COCCn1c(C)cc(C2=NNC(=Nc3ccc(OC)cc3)SC2)c1C
2. Cc1cc(C2=NNC(=Nc3ccccc3)SC2)c(C)n1C
3. O=C(CCCSc1nc(-c2ccco2)cc(C(F)(F)F)n1)Nc1ccc2c(c1)OCO2
4. CC(=O)NCCOc1ccc2oc3ccccc3c2c1

Result string:
-6.04
0.04
6.6
14.2

---

- PROTOCOL_TEXT: M. tuberculosis H37Rv growth inhibitors, H37Rv strain (AID 1626);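 also: bacteria incubated seven days before Alamar blue readout; 0% = bacteria only wells and 100% = bacteria with antibiotic wells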
- PARTICULARS: hits give high values, concentration not given here
Among all 220,000 compounds or so, about 2,000 (0.91%) were called active. Another 2% or so got no clear call; they are omitted. Not all results are given here. Potency and affinity values are given separately.
PROPERTY_NAME: inhibition (%)
Numbers only, in %.

Previously resolved entries follow.
[[record]]
compound = "CCCCOC(=O)C1=C(C)Nc2ncnn2C1c1cccc(OC)c1 (configuration not stated)"
recorded_measurement = -2.89

[[record]]
compound = "O=C(Nc1nc(-c2cccc3ccccc23)cs1)c1ccc2c(c1)S(=O)(=O)c1ccccc1C2=O"
recorded_measurement = 4.24

[[record]]
compound = "CCN(CC)c1ccc(/C=C/C(=O)c2cccnc2)cc1"
recorded_measurement = 16.5


Could I get inhibition for every one of these entries?
1. CCn1c(COc2ccccc2)nc2ccccc21
2. Cc1ccc2[nH]cc(C(=O)CN3CCOCC3)c2c1
3. COc1ccc(-n2c(-c3ccc(Cl)cc3)c[n+]3c2CCCCC3)cc1
4. O=C(/C=C/c1ccccc1)c1ccccc1

Result string:
1. -0.43
2. -4.26
3. -11.5
4. 10.5

I need inhibition for every entry listed below, if you could help.
1. O=C(/C=C/c1cccnc1)c1ccc(O)cc1
2. O=C(COC(=O)c1cncc(Br)c1)NC1CCCCC1

Result string:
-0.25
0.66

# return inhibition for each item in the list
1. O=S(=O)(Nc1ccc(-c2nnc(SCc3ccc(Cl)cc3)o2)cc1)c1ccccc1
2. O=C(/C=C/c1ccccc1Cl)c1cccnc1
3. O=C(/C=C/c1cccc(O)c1)c1cccnc1

Result string:
[5.83, -7.55, 53.2]

---

- PROTOCOL_TEXT: M. tuberculosis H37Rv growth inhibitors, H37Rv strain (AID 1626);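 also: bacteria incubated seven days before Alamar blue readout; 0% = bacteria only wells and 100% = bacteria with antibiotic wells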
- PARTICULARS: hits give high values, concentration not given here
Screen size: about 220,000 compounds; about 2,000 (0.91%) were called active. Another 2% or so got no clear call; they are omitted. The list is a sample of the results. Measured potencies and affinities stand elsewhere.
PROPERTY_NAME: inhibition (%)
Give bare numbers, in %.

# annotated cases, reported inhibition shown
[[record]]
smiles_representation = "CC1=NN(c2ccccc2)C(=O)/C1=C\\c1sccc1C"
property_name = "inhibition"
display_unit = "%"
recorded_measurement = -4.07

[[record]]
smiles_representation = "Cc1ccc(S(=O)(=O)N2CCCN(S(=O)(=O)c3ccc4c(c3)OCCO4)CC2)cc1"
property_name = "inhibition"
display_unit = "%"
recorded_measurement = 8.01

[[record]]
smiles_representation = "CC(C)CNC(=O)NC(=O)COC(=O)c1cccc(NS(=O)(=O)c2ccc(F)c(F)c2)c1"
property_name = "inhibition"
display_unit = "%"
recorded_measurement = 27.8


Quick batch: inhibition for everything below.
1. CCn1c(CCc2nc3ccccc3[nH]2)n[nH]c1=S
2. CCOC(=O)c1ccc(NC(C)=O)c([N+](=O)[O-])c1
3. CCCNc1ccc(C(=O)OCC)cc1[N+](=O)[O-]

Result string:
-3.65
-0.43
-2.78
